# credit: PubChem BioAssay (NCI)

- Tested on: HOP-92 NSCLC
- procedure-text: NCI tumour cell line growth inhibition, 48 h
measurement-name: TGI

>  <molecule>
CCOc1ccccc1N1C(=O)C(=O)C(c2nc3ccccc3o2)/C(=N\N)C1=O (stereo unspecified)

>  <value-measured>
> 100 µM

$$$$
>  <molecule>
COc1cc([C@H]2c3cc4c(cc3[C@H](NCc3ccc([N+](=O)[O-])cc3)C3COC(=O)[C@H]32)OCO4)cc(OC)c1O (stereo partly specified)

>  <value-measured>
> 100 µM

$$$$
>  <molecule>
COc1ccc2c(c1)CC1(O)COc3cc(OC)ccc3C1O2 (stereo unspecified)

>  <value-measured>
> 100 µM

$$$$
>  <molecule>
CCCCC1(N=[N+]=[N-])C(=O)C2C=CC=C3c4ccccc4N(C1=O)C32 (stereo unspecified)

>  <value-measured>
> 10 µM

$$$$
>  <molecule>
COc1ccc(-c2nnc(CCCCCCCCc3nnc(-c4ccc(OC)cc4)n3N)n2N)cc1

>  <value-measured>
> 69.1 µM

$$$$
>  <molecule>
NC(=O)C[C@H](NC(=O)C1(NC(=O)[C@H](Cc2ccc(CP(=O)(O)O)cc2)NC(=O)C(=O)O)CCCCC1)C(=O)NCCCc1cccc2ccccc12

>  <value-measured>
> 10 µM

$$$$
>  <molecule>
CCOC(=O)c1cc2c(cn1)[nH]c1cccc(N)c12

>  <value-measured>
> 100 µM

$$$$
>  <molecule>
COc1ccc(CCNC(=O)CCCCCO)cc1OC

>  <value-measured>
> 100 µM

$$$$
>  <molecule>
C[C@H](CN1CC(=O)NC(=O)C1)N1CC(=O)NC(=O)C1

>  <value-measured>
> 100 µM

$$$$
>  <molecule>
CC1(C)OCC(COC(=O)NCn2cc(-c3ccccc3)nn2)O1 (stereo unspecified)

>  <value-measured>
> 100 µM

$$$$
>  <molecule>
O=C1C2=C(CCCCC2)C2CCCCC12O (stereo unspecified)

>  <value-measured>
> 100 µM

$$$$
